Recorded values, source PubChem BioAssay (NCI).

growth values by entry
test system: U251 CNS; test: NCI-60 one-dose screen, 48 h (100 = growth as untreated, 0 = no growth, -100 = all killed); conditions: 10 µM unless noted
About 83,000 compounds went through this panel and 20% of them were active in at least one assay; those are over-represented in the sample as a whole.
Write the value in % as a bare number.

Solved cases below.
COc1ccc(/C=C(/C)c2ccc3ccc(OC)cc3[o+]2)c(O)c1 ... 84.6
Cc1ccc(NC(=O)N[C@@H](Cc2cc(F)cc(F)c2)C(=O)NC2C(=O)N3C[C@H](O)C[C@H]3C(=O)N3CCCC[C@H]3C(=O)N[C@@H](CO)C(=O)N3C[C@H](C)C[C@H]3C(=O)O[C@H]2C)c(F)c1 (some centres undefined) ... 29.3
Fc1ccc(-c2cc3nc(C(Cl)Cl)nc(-c4ccco4)n3n2)cc1 ... -9.36

Input line: Recorded growth of COc1ccc2[nH]cc(/C=N/Nc3nc4ccccc4s3)c2c1 , please.
Output line: 55.7

Input line: Dear colleague, I am looking for the recorded growth of the following compound: CCO/C=N/C1=C(C#N)C(c2ccc(F)cc2)c2sc3c(C)cccc3c2O1 (centres undefined)
Output line: 21.8

Input line: Which growth is reported for this compound? CCCCCc1ccc(S(=O)(=O)Nc2cccc(-c3csc(NC(=O)CN4CCN(C)CC4)n3)c2)cc1
Output line: 49.7

Input line: Sample CN1CCN(Cc2ccc(NC(=O)c3cncc(C#Cc4cnn5cccnc45)c3)cc2C(F)(F)F)CC1 — what was its growth?
Output line: 36.2

Input line: Look up growth for this compound: Nc1nc(Nc2ccccc2SSc2ccccc2Nc2nc(N)nc(-c3ccccc3)n2)nc(-c2ccccc2)n1
Output line: -22.7

Input line: What value of measured growth is listed for COc1ccccc1NCc1cccn1Cc1ccc(F)cc1 ?
Output line: 98.8

* * *

tested on: OVCAR-8 ovarian; test: NCI-60 one-dose screen, 48 h (100 = growth as untreated, 0 = no growth, -100 = all killed); settings: 10 µM unless noted
Compounds without any hit were thinned out: in the full panel of roughly 83,000, 20% have a hit.
Recorded growth values for a group of molecules are listed next.
Report only the number, with the unit % understood.

Input line: Returns the measured growth for the input molecule. Input: COc1ccc(NCc2cn(-c3ccc(C(=O)O)cc3)nc2-c2cc(C(F)(F)F)cc(C(F)(F)F)c2)cc1
Output line: 109

Input line: Request the reported growth associated with Cn1ccnc1C(=O)/C=C/c1ccc(CNC(=O)c2ccc(Cl)cc2)cc1
Output line: 24.6

Input line: Returns the measured growth for the input molecule. Input: CCn1c(SCC(=O)Nc2cccc(C(=O)/C=C/c3ccccc3Cl)c2)nc2ccccc2c1=O
Output line: 98.9

Input line: Using the record for Cc1ccc2c(c1)C13C(=C2Br)CCCN1C(=O)c1ccccc13 (stereo not given) , report its growth.
Output line: 99.5

Input line: State the recorded growth for this entry: C=C(C)[C@@H]1CC[C@]2(COC)CC[C@]3(C)[C@H](CC[C@@H]4[C@@]5(C)CCCNC(C)(C)[C@@H]5CC[C@]43C)[C@@H]12
Output line: 79.2

* * *

Property: growth; scope: individual compounds
system: UACC-62 melanoma; test: NCI-60 one-dose screen, 48 h (100 = growth as untreated, 0 = no growth, -100 = all killed); details: 10 µM unless noted
About 83,000 compounds went through this panel and 20% of them were active in at least one assay; those are over-represented in the sample as a whole.
Number in %, nothing else.

Worked cases, answers included:
COc1c(N2CC3CCCNC3C2)c(F)cc2c(=O)c(C(=O)N/N=C/c3ccc(N(C)C)cc3)cn(C3CC3)c12 (stereo not given) ... 100
Cn1cc(-c2nc(N)nnc2-c2c[nH]c3ccccc23)c2cc(Br)ccc21 ... 21
Cc1c(F)cc(C(N)=O)cc1NCC(=O)Nc1ccc([N+](=O)[O-])cc1 ... 84.2

Input line: // lookup growth | system=UACC-62 melanoma | key= C#Cc1nc(/C=C/C(=O)c2nccn2C)cs1
Output line: -84.3

Input line: # returns recorded growth (system: UACC-62 melanoma) for CCNC(=O)N1CCc2cc(OC)c(OCCc3ccc(OC)nc3)cc2C1c1ccc(OC)cc1C (stereo not given)
Output line: 22.7

Input line: Recall the recorded growth for N/C(=N\C(N)=N\c1nc2ccccc2s1)c1ccc(C(F)(F)F)cc1 with UACC-62 melanoma and state it.
Output line: 97.8

Input line: Give recorded growth with UACC-62 melanoma for the following compound: NS(=O)(=O)c1ccc(Nc2nc(SCC(=O)c3ccc(Cl)cc3)nc3c2CCCC3)cc1
Output line: 48.2

Input line: Return growth measured with UACC-62 melanoma given this compound: Cc1noc(C)c1CSc1nc2ccccc2n1-c1ccccc1
Output line: 72.5

Input line: Form field: growth recorded for COc1cc(/C=C/C(=O)c2ccc(NC(=O)CSc3nnc(-c4ccc(-c5nc6ccc(Cl)cc6[nH]5)cc4)o3)cc2)cc(OC)c1OC with UACC-62 melanoma (enter value)
Output line: 74.2

Input line: Field: growth (UACC-62 melanoma). Entry: CCOc1ccc(C(=O)Nc2ncc(Cc3ccc(F)cc3)s2)cc1
Output line: 33
